- TARGET_OR_SYSTEM: T1, Biotin PSGL-1(42-62) peptide, unmodified (human, C-terminal Lys-biotin)
- T1 construct: Residues 42-62 followed by GGGK-biotin; also called WT; wild-type
- T1 peptide: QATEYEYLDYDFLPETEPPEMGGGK
- MEASUREMENT_PROTOCOL: ELISA, plate-bound target
QUANTITY_MEASURED: EC50 (nM)

16L15 (antibody, V domains shown, From mouse immunisation; only variable domains given) VH: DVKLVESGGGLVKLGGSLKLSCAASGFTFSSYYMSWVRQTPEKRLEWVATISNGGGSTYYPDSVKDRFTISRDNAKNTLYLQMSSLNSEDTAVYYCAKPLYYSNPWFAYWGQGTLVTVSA VL: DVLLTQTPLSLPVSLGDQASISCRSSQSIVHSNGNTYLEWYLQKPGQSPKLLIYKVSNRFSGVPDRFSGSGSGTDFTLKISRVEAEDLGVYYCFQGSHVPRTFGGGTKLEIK :: 0.89
5E12 (antibody, V domains shown, Mouse hybridoma mAb; only variable domains given) VH: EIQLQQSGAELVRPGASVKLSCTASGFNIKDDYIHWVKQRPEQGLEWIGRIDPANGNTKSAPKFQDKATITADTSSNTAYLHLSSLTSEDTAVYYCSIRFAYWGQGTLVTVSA VL: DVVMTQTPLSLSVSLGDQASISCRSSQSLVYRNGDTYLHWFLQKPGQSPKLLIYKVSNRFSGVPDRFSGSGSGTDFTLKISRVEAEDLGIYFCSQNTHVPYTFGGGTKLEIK :: 0.86
9F9 (antibody, V domains shown, Control anti-PSGL-1 mAb, recombinant; only variable domains given; also called 9F6) VH: EVQLVETGGGLVQPKGSLKLSCAASGFTFNTNAMNWVRQAPGKGLEWVARIRSKSNNYATYYADSVKDRFTISRDDTQSMIYLQMNNLKTEDTGMYYCVRGGSYWYFDVWGAGTTVTVSS VL: DVLMTQTPLSLPVSLGDQASISCRSSQSIVNSNGNTYLEWYLQKPGQSPKLLIYKVSNRFSGVPDRFSGSGSGTDFTLKISRVEAEDLGVYYCFQGSHVPWTFGGGTKLEIK :: 0.04
2E12 (antibody, V domains shown, Mouse hybridoma mAb; only variable domains given) VH: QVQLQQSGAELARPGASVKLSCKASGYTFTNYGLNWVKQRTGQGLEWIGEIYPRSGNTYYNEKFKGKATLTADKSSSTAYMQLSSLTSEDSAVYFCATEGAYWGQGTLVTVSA VL: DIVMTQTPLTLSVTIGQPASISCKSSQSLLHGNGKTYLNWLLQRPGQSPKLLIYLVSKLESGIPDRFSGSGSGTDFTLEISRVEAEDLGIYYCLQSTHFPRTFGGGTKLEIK :: 1.02
